# Test system: K-562 leukemia
# EXPERIMENT_SUMMARY: NCI-60 one-dose screen, 48 h (100 = growth as untreated, 0 = no growth, -100 = all killed)
# RUN_CONDITIONS: 10 µM unless noted
This is part of a sample that, as a whole, favours compounds with a hit. Of some 83,000 tested, about 20% had one in any assay.
RESULT_TYPE: growth (%)
// units = %; emit number, no label

Task: Look at this compound and give its reported growth. CC(C)C1=NOC(=O)C1=Cc1cn(-c2ccccc2)nc1-c1ccc(Br)cc1
Result: 43.4

Task: Would you mind telling me what growth value was observed for CCOC(=O)n1cc(C2=C(c3ccc(OC)c(OC)c3)COC2=O)c2ccccc21 ?
Result: 9.56

Task: Sample C=C(CC(=O)OC)C(C)=O — what was its growth?
Result: 106

Task: Returns the measured growth for the input compound. Input: Cn1cc(-c2noc(-c3cn(C)c4ncc(F)cc34)n2)c2ccccc21
Result: 77

Task: What value of measured growth is listed for Ic1ccc2[nH]cc(SSc3c[nH]c4ccc(I)cc34)c2c1 ?
Result: 9.29

Task: Entry under review: C[N+](C)(C)c1ncnc2[n-]cnc12 . Reported growth?
Result: 101

Task: Fill in: growth of CC1(C)OC2[C@@H](CNC(=O)NC(=O)NC(=O)CI)O[C@@H](n3cnc4c(NC(=O)Nc5ccccc5)ncnc43)[C@H]2O1 (some centres not stated) is ___
Result: 4.48

Task: Which growth value is on record for C#C[C@]1(O)CC[C@H]2[C@@H]3CC=C4c5nc(Nc6ccccc6[N+](=O)[O-])sc5CC[C@]4(C)[C@H]3CC[C@@]21C ?
Result: 8.86

Task: Suppose we examine the compound O=C(OCc1ccc2c(Cl)cc(Cl)c(O)c2n1)N1CCNCC1 ; what growth value has been reported?
Result: 19.1

Task: Data request, read-out growth, for C=CCc1nc2ccccc2s1
Result: 96.9

Task: Form field: reported growth of CCOC(=O)Nc1ccc2c(c1)/C(=N\NC(=S)NC)c1ccccc1-2
Result: 77.2

Task: Quick one: growth for CC1=CCc2ccccc21 ?
Result: 94.1

Task: # query: growth of entry CCOC(=O)c1sc2nc(-c3cc(OC)c(OC)c(OC)c3)nc(N3CCOCC3)c2c1C
Result: 24.2

Task: Would you kindly share the measured growth for O=C1Nc2ccccc2/C1=C/C(=O)c1ccc(N2CCOCC2)cc1 ?
Result: 75

Task: Look at this compound and give its reported growth. CCNc1cc2c(cc1Br)-c1ccccc1C2=O
Result: 102

Task: I would be grateful if you could share the reported growth for O=c1[nH]c(CN2CCN(c3cccc(Cl)c3)CC2)nc2cc(Cl)ccc12 .
Result: 97.9

Task: If you can, please state the reported growth value of Cc1cccc(C[C@H](NC(=O)Nc2ccc(Cl)cc2F)C(=O)N[C@@H]2C(=O)N3C[C@H](OC(=O)CCN(C)C)C[C@H]3C(=O)N3CCCC[C@H]3C(=O)N[C@@H](C)C(=O)N3C[C@H](C)C[C@H]3C(=O)O[C@H]2C)c1 .
Result: 15.8

Task: Consider the compound shown here: O=C(Nc1cccc2ccccc12)c1cc2ccccc2cc1O What is its recorded growth?
Result: 14.7

Task: Given the compound O=C1NC(=O)C(Cc2ccccc2)(Cc2ccccc2)N1 , what is its reported growth?
Result: 108

Task: Could you share which growth value was measured for CC(C)[C@H]1COC(=O)N1[C@@H]1C(=O)N([C@@H](CCC(=O)N2CCN(C3CCCC3)CC2)C(=O)N[C@@H]2CCCc3ccccc32)[C@@H]1/C=C/c1cccc(Cl)c1 ?
Result: 45.5

Task: Any idea what growth was measured for c1cc2ccc1CNCCN1CCNCc3ccc(cc3)Oc3ccc(cc3)CNCCN(CCNCc3ccc(cc3)O2)CCNCc2ccc(cc2)Oc2ccc(cc2)CNCC1 ?
Result: -23.7

Task: Any idea what growth was measured for N#C/C(C(=O)c1ccccc1)=C1/C(=O)Nc2ccccc21 ?
Result: 88.6

Task: Query (compound): CCCC(NC(=O)OCc1ccccc1)C(=O)O (configuration not stated) ; field requested: growth
Result: 107

Task: Could you tell me which growth is on file for COc1ccc(-c2cc(-c3ccc(OC)c(OC)c3)nc(SCCCCCC(=O)NO)n2)cc1 ?
Result: 26.1

Task: Need growth of CNc1cc(C(=O)O)nc(NC)n1 , thanks.
Result: 101

Task: // growth lookup, key: Nc1nc(Nc2ccccc2)c2ncn(Cc3ccc4c(c3)OCO4)c2n1
Result: 15.7

Task: Which value of growth has been reported for Cc1ccc(NC(=O)N[C@@H](Cc2cc(F)cc(F)c2)C(=O)N[C@@H]2C(=O)N3CCC[C@H]3C(=O)N3CCCC[C@H]3C(=O)N[C@@H](C)C(=O)N3C[C@H](C)C[C@H]3C(=O)O[C@H]2C)cc1 in the records?
Result: 14.3

* * *

# Tested on: MCF7 breast
# EXPERIMENT_SUMMARY: NCI-60 one-dose screen, 48 h
# RUN_CONDITIONS: 10 µM unless noted
Compounds without any hit were thinned out: in the full panel of roughly 83,000, 20% have a hit. Activity calls are given as the source filed them. How the source made its calls: active means growth percent below 10; inactive means the rest.
Parameter call: string, one of True = active, False = inactive

Task: Check the results log: what was the call for O=C1Nc2ccccc2/C1=C/C(=O)c1ccc(N2CCOCC2)cc1 ?
Result: False

Task: Hello, I am checking results. What call was entered for Cn1c(=O)c(C#N)c(-c2ccco2)n2c(S(=O)(=O)Cc3ccccc3)nnc12 ?
Result: False

Task: Recorded test outcome, item CC(C)CCSC1=CC(=O)c2ccccc2C1=O
Result: False

Task: What was the test verdict on Cc1cccc(/C=C2\N=C(c3ccccc3)N(c3ccc(S(N)(=O)=O)cc3)C2=O)c1 ?
Result: False

Task: I'd appreciate the recorded outcome for O=C1COCCN1c1ccc(NCc2cn(Cc3ccccc3)c3ccccc23)cc1 from this test.
Result: False

Task: Test call, this molecule: O=S(=O)(/N=c1/n(-c2ccccc2)nc2n1CCN2C1=NCCN1)c1ccc(-c2ccccc2)cc1
Result: False

Task: // param item: CSc1cccc([N+](=O)[O-])c1 ; yields the recorded call
Result: False

Task: Hey, what did the test say about CCOC(=O)c1c[nH]c2cc(OCC3CC3)c(OCC3CC3)cc2c1=O ?
Result: False

Task: Can you look up the reported call for C[C@H]1[C@H](C)CC[C@]2(C(=O)O)CC[C@]3(C)C(=CC[C@@H]4[C@@]5(C)C/C(=C/c6cccnc6)[C@H](O)C(C)(C)[C@@H]5CC[C@]43C)[C@H]12 for me?
Result: True

Task: How was Fc1ccc(NC(=S)c2ccccc2)cc1 classified in this test?
Result: False

Task: Query: recorded result category for C#CCNC(=O)CC[C@]1(C)[C@H]2CC[C@@H]3[C@@H]([C@@](C)(O)CCC=C(C)C)CC[C@@]3(C)[C@]2(C)CC[C@H]1C(=C)C in this test
Result: False

Task: Outcome? O=C1CC(c2ccccc2)Cc2nc3ccc(Br)cc3cc21 (centres undefined)
Result: False

Task: Write down the call the test reported for this molecule. Item: C[C@H]1[C@H](C)CC[C@]2(C(=O)N3CCN(C)CC3)CC[C@]3(C)C(=CC[C@@H]4[C@@]5(C)C/C(=C/c6ccco6)C(=O)C(C)(C)[C@@H]5CC[C@]43C)[C@H]12
Result: False

Task: Could you please tell me the result logged for Cc1ccccc1-n1nnc(C(=O)Nc2nc3ccc(F)cc3s2)c1C in this assay?
Result: False

Task: // outcome(item) with item = COC(=O)c1c(C)[nH]c(/C=C2\N=C(c3ccc[nH]3)C=C2OC)c1C
Result: True

Task: # fetch the recorded call for C[C@@H]1C[C@H]2C(=O)O[C@@H](C)[C@H](NC(=O)[C@H](Cc3cc(F)cc(F)c3)NC(=O)Nc3ccc(C4CC4)cc3F)C(=O)N3CCC[C@H]3C(=O)N3CCCC[C@H]3C(=O)N[C@@H](C)C(=O)N2C1 here
Result: False

Task: Returns: the outcome recorded for C[n+]1cccc(NC(=O)c2ccc3ccc4ccc(C(=O)Nc5ccc[n+](C)c5)nc4c3n2)c1 in this assay.
Result: False

Task: How was Cn1cc(-c2nnc(-c3cn(C)c4ncccc34)o2)c2ccccc21 classified in this test?
Result: False

Task: Write down the call the test reported for this molecule. Item: Cc1cc(NN=C(c2ccc(O)cc2)c2ccc(O)cc2)c([N+](=O)[O-])cc1[N+](=O)[O-]
Result: False

Task: What is the recorded call for this molecule in the test? CCN(CCO)CCC(=O)c1ccc([N+](=O)[O-])cc1
Result: False

Task: What call does the record list for COCc1nc2ccccc2[nH]1 ?
Result: False

Task: Would you mind telling me which call this test gave CC1(C)CC[C@]2(C(N)=O)CC[C@]3(C)C(=CC[C@@H]4[C@@]5(C)C/C(=C/c6cccnc6)C(=O)C(C)(C)[C@@H]5CC[C@]43C)[C@@H]2C1 ?
Result: True

Task: Which outcome did this test record for the molecule COc1cc2c(c(OC)c1OC)-c1ccc(NNC(N)=S)c(=O)cc1[C@@H](NC(C)=O)CC2 ?
Result: False

Task: What did this assay record as the result for Nc1cc(C(=O)O)[nH]c(=S)n1 ?
Result: False

Task: Please share the test call associated with O=C(N/N=C/c1ccc([N+](=O)[O-])cc1)c1ccc(Br)o1 .
Result: False

Task: Please state the recorded outcome for this molecule: CCc1cccc(Cl)c1
Result: False

Task: How was CCOc1cccc2c(NC(C)CCCN(CC)CC)c(C)cnc12 (centres undefined) classified in this test?
Result: False

Task: Please let me know the test result on file for c1ccc(-c2nnc(-c3c[nH]c4ncccc34)s2)cc1 .
Result: False

Task: # fetch the recorded call for CCNC(=O)N1CCc2c(Cl)c3c(c(OC)c2[C@@H]1[C@H]1OCc2c1ccc(OC)c2OC)OCCO3 here
Result: False

Task: GET /call?item= Cc1ccccc1OC(=O)c1cccc(Cl)c1 returns the recorded outcome of this test.
Result: False

Task: Per the assay record, what outcome was assigned to O=C(N[C@@H]1CCCc2ccccc21)[C@H](CCC(=O)N1CCN(C2CCCCC2)CC1)N1C(=O)[C@@H](N2C(=O)OC[C@@H]2c2ccccc2)[C@H]1/C=C/c1ccccc1 ?
Result: False

Task: Could you please tell me the result logged for CC1(C)CC[C@]2(C(N)=O)CC[C@]3(C)C(=CC[C@@H]4[C@@]5(C)C/C(=C/c6ccncc6)C(=O)C(C)(C)[C@@H]5CC[C@]43C)[C@@H]2C1 in this assay?
Result: True

Task: Called result for Cc1nn(-c2ccccc2)c(N2CCOCC2)c1-c1nc2ccc([N+](=O)[O-])cc2[nH]1
Result: False

Task: In this assay, the call recorded for CCCCC(CCCCCC(CCCC)C1NC(C)Cc2cc(OC)c(OC)cc21)C1NC(C)Cc2cc(OC)c(OC)cc21 (centres undefined) was what?
Result: True
